Origin of the recorded values: patent US9296778B2

assay: cytotoxicity evaluation (CellTiter-Blue Cell Viability Assay); details: human
OBSERVABLE: CC50

>>> result("CCOc1nc(N)nc2c1ncn2[C@@H]1O[C@@H]2COP(=O)(Oc3ccc(C[C@H](NC(=O)OC)C(=O)OC(C)C)cc3)O[C@H]2[C@@]1(C)F (stereo partly shown) [Compound 13]")
"> 50 µM"

----------
system: mouse hepatocytes; assay: Release of active metabolite in mouse hepatocytes; assay type: in vitro ADME; details: 10 μM compound, mouse hepatocytes, 1, 4, 8, 12 and 24 hours
OBSERVABLE: MsH AUC

>>> result("CC(C)OC(=O)CCCOP1(=O)OC[C@H]2O[C@@H](n3cnc4c(=O)[nH]c(N)nc43)[C@](C)(F)[C@@H]2O1 (single isomer, unassigned; diastereomer 1) [Compound 6 Diastereomer 1]")
"BLD^a"
>>> result("CCOc1nc(N)nc2c1ncn2[C@@H]1O[C@@H]2COP(=O)(OCCCC(=O)OC(C)C)O[C@H]2[C@@]1(C)O (single isomer, unassigned) [Compound 1 Diastereomer 2]")
"8363 pmol · hr/mill cells"
>>> result("CCOc1nc(N)nc2c1ncn2[C@@H]1O[C@@H]2COP(=O)(OCCC(=O)OC(C)C)O[C@H]2[C@@]1(C)O (single isomer, unassigned; diastereomer 2) [Compound 22 Diastereomer 2]")
"BLD^a"
